Test system: Sodium/Iodide Symporter (NIS), SLC5A5 (gene 6528)
Assay: CPHEA_Stoker_NIS_Inhibition_RAIU: CPHEA's Radioactive Iodide Uptake (RAIU) Assay for Sodium/Iodide Symporter (NIS) Inhibition, Stoker and Laws Labs (AID 2283841)
Records with an inconclusive call do not appear. The source made the active and inactive calls. Rule for the calls: active = hit-call score of the fitted dose curve at least 0.9, where 1 is the maximum; inconclusive = response in the unintended direction; inactive = score below 0.9.
Give one outcome, nothing more. List: active, inactive

compound	qualitative-label
Oc1ccc(-c2ccccc2)c(Cl)c1	inactive

Problem: Short answer needed: outcome of this test for COc1ccc(-c2coc3cc(O)cc(O)c3c2=O)cc1 ?
Solution: active

Problem: // query: O=C(Nc1ccccc1)c1cc(Cl)ccc1O
Solution: active

Problem: Repeat with CCCCCCCCCC[N+](C)(CCCCCCCCCC)CCC[Si](OC)(OC)OC
Solution: inactive

###

Test: CEETOX_H295R_DOC: CeeTox H295R High-throughput Steroidogenesis Assay for DOC (AID 2283439)
Conditions: actives raise or lower the signal
Calls of active or inactive are those of the source. How the source made its calls: active means hit-call score of the fitted dose curve at least 0.9, where 1 is the maximum; inactive means score below 0.9.
Bench note: report the call from active, inactive

Consider the worked cases shown below.
molecule	qualitative-label
CC(C)(C)NC(=O)[C@H]1CC[C@H]2[C@@H]3CC[C@H]4NC(=O)C=C[C@]4(C)[C@H]3CC[C@]12C	active
CCN1CN(CC)CN(CC)C1	inactive
O=C(OCc1ccccc1)c1ccc(O)cc1	active
CCOC(=O)C1=NN(c2ccc(Cl)cc2Cl)C(C)(C(=O)OCC)C1 (stereo not given)	inactive

Problem: Could you check what this test reported for C=C[C@@]1(C)CC(=O)[C@]2(O)[C@@]3(C)[C@@H](O)CCC(C)(C)[C@@H]3[C@H](O)[C@H](OC(C)=O)[C@@]2(C)O1 ?
Solution: active

###

Target: Nuclear receptor subfamily 1 group I member 2 (Homo sapiens)
Assay: ATG_PXR_TRANS: Attagene TRANS-FACTORIAL HepG2 Assay for human Pregnane X Receptor (PXR) (AID 2283008)
Inconclusive results are not listed. Active and inactive are the calls of the source. Rule for the calls: active = hit-call score of the fitted dose curve at least 0.9, where 1 is the maximum; inconclusive = response in the unintended direction; inactive = score below 0.9.
Please reply with one of these outcomes: active, inactive

See these solved cases before continuing.
compound	target-of-assay	qualitative-label
N#Cc1ccc(C(c2ccc(C#N)cc2)n2cncn2)cc1	Nuclear receptor subfamily 1 group I member 2 (Homo sapiens)	inactive
O=C1CCCCCCCCCCCN1	Nuclear receptor subfamily 1 group I member 2 (Homo sapiens)	active
COC(=O)C=Cc1ccccc1	Nuclear receptor subfamily 1 group I member 2 (Homo sapiens)	inactive
CC(C)(C)C1CCC(=O)CC1	Nuclear receptor subfamily 1 group I member 2 (Homo sapiens)	inactive

Problem: What did this assay record as the result for CC1C(C)(C)C2=C(C(=O)CCC2)C1(C)C (configuration not stated) ?
Solution: active

Problem: Same read-out for CCCCCCCCCCCC(C)=O ?
Solution: inactive

Problem: Lookup C1CNCCN1
Solution: inactive

Problem: Subsequent entry: CC(C)=CCCC(C)=CC#N
Solution: inactive

Problem: Do the same for CC(C)CC(=O)OCc1ccccc1 please
Solution: inactive

Problem: Same read-out for Nc1ccc(O)c([N+](=O)[O-])c1 ?
Solution: inactive

Problem: Entry CCN(CC)c1cccc(C)c1 please
Solution: inactive

Problem: // next record Nc1nc(N)nc(-c2ccccc2)n1
Solution: inactive

Problem: # iterate: CCCCC/C=C\C/C=C\CCCCCCCC(=O)O
Solution: inactive

Problem: Lookup CCCCNS(=O)(=O)c1ccc(C)cc1
Solution: inactive

Problem: Note, next up: CN(C)c1ccc2nc3ccc(=[N+](C)C)cc-3sc2c1
Solution: active

Problem: Now consider CCCCCCO .
Solution: inactive
